- protocol notes: Solubility and sink factor in dissolution media at pH 2 and 6.8
- measurement context: pH 2, aqueous with cosolvent or surfactant or cyclodextrin, thermodynamic from solid, Solubility, pH 2.0 (0.01N HCl) w/0.5% Tween 80
measured property: solubility (µg/mL)
Return type: number; implicit unit µg/mL.

Report solubility for CS(=O)(=O)c1ccc(Oc2cc(F)cc(C#N)c2)c2c1[C@H](O)[C@H](F)[C@@H]2F [compound of Formula (I)] please. 20

----------
- protocol notes: Solubility and sink factor in dissolution media at pH 2 and 6.8
- measurement context: pH 2, aqueous with cosolvent or surfactant or cyclodextrin, thermodynamic from solid, Solubility
measured property: solubility
# include the unit after the value

Report solubility for CS(=O)(=O)c1ccc(Oc2cc(F)cc(C#N)c2)c2c1[C@H](O)[C@H](F)[C@@H]2F please. 60 µg/mL
